# Study system: T1, Bdf1 bromodomain 1 (GST-tagged, WT) (Saccharomyces cerevisiae (strain ATCC …, UniProt P35817))
# T1 chain: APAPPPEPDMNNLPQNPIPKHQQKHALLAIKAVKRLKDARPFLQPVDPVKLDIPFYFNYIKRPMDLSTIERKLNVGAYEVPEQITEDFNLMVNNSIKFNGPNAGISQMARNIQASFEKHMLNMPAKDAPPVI
# Assay method text: histone peptide array probed with recombinant GST-bromodomain, signal normalised to myc peptide control
Non-standard residues stand in square brackets, D forms with d. No end group written: not given here. Arg(Me2a) = CN(C)C(=N)NCCC[C@H](N)C(=O)O; Lys(Me3) = C[N+](C)(C)CCCC[C@H](N)C(=O)O; Arg(Me2s) = CN=C(NC)NCCC[C@H](N)C(=O)O; pT = C[C@@H](OP(=O)(O)O)[C@H](N)C(=O)O; Lys(Me2) = CN(C)CCCC[C@H](N)C(=O)O; pS = N[C@@H](COP(=O)(O)O)C(=O)O
Measured endpoint: binding score

Q: Sample SGRGKGGKGLGKGGAKRHR (S G Rme2a G K G G Kac G L G K G G A K R H R) — what was its binding score?
Result: 0.0183

[I] A[Arg(Me2s)]TK(Ac)QTARK(Me)STGGKAPRKQ
[II] PRKQLATKAA[Arg(Me2s)][Lys(Me3)][pS]APATGG
Q: I or II : whose binding score is greater? Kindly give the label for the entry you pick.
Result: II
(II: 0.00753, I: 0.00341)

[P] A[Arg(Me2s)]TK(Ac)QTA[Arg(Me2a)][Lys(Me2)]STGGKAPRKQ
[Q] ARTKQTARKSTGGKAPRKQ (A R T K Q T A R Kme2 S pT G G K A P R K Q)
Q: Between P and Q , which one shows the larger binding score value? Answer by stating the label of the chosen item.
Result: P

[A] ARTK(Me)QTARKSTGGKAPRKQ
[B] SGRGKGGKGLGKGGAKRHR (S G R G K G G Kac G L G Kac G G A Kac R H R)
Q: // pick larger binding score from pair: A vs B Write down the label attached to your selection.
Result: B
(B: 0.484, A: 0)

[1] ARTKQTARKSTGGKAPRKQ (A Rme2s T Kme2 Q T A R K S T G G K A P R K Q)
[2] RKSAPATGGVKKPHRYRPG (R K S A P A T G G V Kac K P H R Y R P G)
[3] AR[pT][Lys(Me3)]QTARKSTGGKAPRKQ
[4] SGRGK(Ac)QGGK(Ac)ARAK(Ac)AKSRSS [H2a 1-19]
Q: Sort entries by binding score from minimum to maximum value. Return value: ordered labels per request.
Result: 1, 3, 2, 4
